The measurements presented in this section are drawn from ChEMBL document CHEMBL5053548.

experiment: Fluorescence property of compound in THF assessed as quantum yield; type: physicochemical
Exam item: assign 1 to entries whose Activity is below 0.03 and -1 to entries at or above 0.03. Note that a value of exactly 0.03 receives -1.

>  <MOLECULE>
CCSc1ccc2c(c1)C1=Nc3c4ccc(SCC)cc4c4n3[B-]3(Oc5ccc(C[C@H](NC(=O)OC(C)(C)C)C(=O)OC)cc5)n5c(c6cc(SCC)ccc6c5=N4)=NC2=[N+]13 (stereo partly specified)

>  <LABEL_CLASS>
-1

$$$$
>  <MOLECULE>
COC(=O)[C@H](Cc1ccc(O[B-]23n4c5c6c(F)c(F)c(F)c(F)c6c4N=c4c6c(F)c(F)c(F)c(F)c6c(n42)=NC2=[N+]3C(=N5)c3c(F)c(F)c(F)c(F)c32)cc1)NC(=O)OC(C)(C)C (stereo partly specified)

>  <LABEL_CLASS>
-1

$$$$
>  <MOLECULE>
CCSc1ccc2c(c1)C1=Nc3c4ccc(SCC)cc4c4n3[B-]3(OCc5ccc6c(c5)OCCOCCOCCOCCOCCO6)n5c(c6cc(SCC)ccc6c5=N4)=NC2=[N+]13 (stereo unspecified)

>  <LABEL_CLASS>
-1

$$$$
>  <MOLECULE>
Fc1c(F)c(F)c2c(c1F)C1=Nc3c4c(F)c(F)c(F)c(F)c4c4n3[B-]3(OCc5ccc6c(c5)OCCOCCOCCOCCOCCO6)n5c(c6c(F)c(F)c(F)c(F)c6c5=N4)=NC2=[N+]13 (stereo unspecified)

>  <LABEL_CLASS>
1

$$$$
>  <MOLECULE>
Ic1ccc2c(c1)C1=[N+]3C2=Nc2c4ccc(I)cc4c4n2[B@-]3(OCc2ccc3c(c2)OCCOCCOCCOCCOCCO3)n2c(c3cc(I)ccc3c2=N4)=N1

>  <LABEL_CLASS>
1

$$$$

---

test: Dark toxicity against human SK-MEL-28 cells assessed as reduction in cell viability incubated for 24 hrs by neutral red uptake assay; assay type: cell-based; settings: read-out: TC50

>  <MOLECULE>
COC(=O)[C@H](Cc1ccc(O[B-]23n4c5c6c(F)c(F)c(F)c(F)c6c4N=c4c6c(F)c(F)c(F)c(F)c6c(n42)=NC2=[N+]3C(=N5)c3c(F)c(F)c(F)c(F)c32)cc1)NC(=O)OC(C)(C)C (stereo partly drawn)

>  <CC50 at 24 h>
> 100 µM

$$$$
>  <MOLECULE>
CCSc1ccc2c(c1)C1=Nc3c4ccc(SCC)cc4c4n3[B-]3(OCc5ccc6c(c5)OCCOCCOCCOCCOCCO6)n5c(c6cc(SCC)ccc6c5=N4)=NC2=[N+]13 (stereo not drawn)

>  <CC50 at 24 h>
14.5 µM

$$$$
>  <MOLECULE>
Ic1ccc2c(c1)C1=[N+]3C2=Nc2c4ccc(I)cc4c4n2[B@-]3(OCc2ccc3c(c2)OCCOCCOCCOCCOCCO3)n2c(c3cc(I)ccc3c2=N4)=N1

>  <CC50 at 24 h>
71.8 µM

$$$$
>  <MOLECULE>
Fc1c(F)c(F)c2c(c1F)C1=Nc3c4c(F)c(F)c(F)c(F)c4c4n3[B-]3(OCc5ccc6c(c5)OCCOCCOCCOCCOCCO6)n5c(c6c(F)c(F)c(F)c(F)c6c5=N4)=NC2=[N+]13 (stereo not drawn)

>  <CC50 at 24 h>
18.9 µM

$$$$
>  <MOLECULE>
COC(=O)[C@@H](N)Cc1ccc(O[B-]23n4c5c6ccc(I)cc6c4N=c4c6ccc(I)cc6c(n42)=NC2=[N+]3C(=N5)c3ccc(I)cc32)cc1 (stereo partly drawn)

>  <CC50 at 24 h>
> 100 µM

$$$$
>  <MOLECULE>
COC(=O)[C@H](Cc1ccc(O[B@@-]23n4c5c6ccc(I)cc6c4N=c4c6ccc(I)cc6c(n42)=NC2=[N+]3C(=N5)c3ccc(I)cc32)cc1)NC(=O)OC(C)(C)C

>  <CC50 at 24 h>
> 50 µM

$$$$
>  <MOLECULE>
CCSc1ccc2c(c1)C1=Nc3c4ccc(SCC)cc4c4n3[B@-]3(Oc5ccc(C[C@H](N)C(=O)OC)cc5)n5c(c6cc(SCC)ccc6c5=N4)=NC2=[N+]13

>  <CC50 at 24 h>
> 100 µM

$$$$
>  <MOLECULE>
CCSc1ccc2c(c1)C1=Nc3c4ccc(SCC)cc4c4n3[B-]3(Oc5ccc(C[C@H](NC(=O)OC(C)(C)C)C(=O)OC)cc5)n5c(c6cc(SCC)ccc6c5=N4)=NC2=[N+]13 (stereo partly drawn)

>  <CC50 at 24 h>
> 100 µM

$$$$

---

test: Drug uptake in human SK-MEL-28 cells assessed per mg protein measured upto 12 hrs by spectrofluorometric method; format: ADME, cell-based; conditions: sk-mel-28, 12 h

>  <COMPOUND>
CCSc1ccc2c(c1)C1=Nc3c4ccc(SCC)cc4c4n3[B-]3(Oc5ccc(C[C@H](NC(=O)OC(C)(C)C)C(=O)OC)cc5)n5c(c6cc(SCC)ccc6c5=N4)=NC2=[N+]13 (some centres undefined)

>  <Drug uptake / nmol/mg>
0.033

$$$$
>  <COMPOUND>
CCSc1ccc2c(c1)C1=Nc3c4ccc(SCC)cc4c4n3[B-]3(OCc5ccc6c(c5)OCCOCCOCCOCCOCCO6)n5c(c6cc(SCC)ccc6c5=N4)=NC2=[N+]13 (centres undefined)

>  <Drug uptake / nmol/mg>
2.66

$$$$
>  <COMPOUND>
CCSc1ccc2c(c1)C1=Nc3c4ccc(SCC)cc4c4n3[B@-]3(Oc5ccc(C[C@H](N)C(=O)OC)cc5)n5c(c6cc(SCC)ccc6c5=N4)=NC2=[N+]13

>  <Drug uptake / nmol/mg>
0.367

$$$$
>  <COMPOUND>
Ic1ccc2c(c1)C1=[N+]3C2=Nc2c4ccc(I)cc4c4n2[B@-]3(OCc2ccc3c(c2)OCCOCCOCCOCCOCCO3)n2c(c3cc(I)ccc3c2=N4)=N1

>  <Drug uptake / nmol/mg>
0.005

$$$$

---

experiment: Fluorescence property of compound in THF assessed as quantum yield; format: physicochemical
Listing: Activity of selected compounds

>  <COMPOUND>
CCSc1ccc2c(c1)C1=Nc3c4ccc(SCC)cc4c4n3[B@-]3(Oc5ccc(C[C@H](N)C(=O)OC)cc5)n5c(c6cc(SCC)ccc6c5=N4)=NC2=[N+]13

>  <Activity>
0.17

$$$$
>  <COMPOUND>
COC(=O)[C@@H](N)Cc1ccc(O[B-]23n4c5c6ccc(I)cc6c4N=c4c6ccc(I)cc6c(n42)=NC2=[N+]3C(=N5)c3ccc(I)cc32)cc1 (stereo partly drawn)

>  <Activity>
0.01

$$$$
>  <COMPOUND>
COC(=O)[C@H](Cc1ccc(O[B@@-]23n4c5c6ccc(I)cc6c4N=c4c6ccc(I)cc6c(n42)=NC2=[N+]3C(=N5)c3ccc(I)cc32)cc1)NC(=O)OC(C)(C)C

>  <Activity>
0.03

$$$$

---

assay: n-Octanol/PBS partition coefficient, logP of the compound at pH 7.4 at 100 uM after 5 mins; type: physicochemical
READOUT_NAME: logD at 5 min, 100 µM

>  <COMPOUND>
COC(=O)[C@@H](N)Cc1ccc(O[B-]23n4c5c6ccc(I)cc6c4N=c4c6ccc(I)cc6c(n42)=NC2=[N+]3C(=N5)c3ccc(I)cc32)cc1 (stereo not given in full)

>  <READOUT_NAME>
logD at 5 min, 100 µM

>  <QUANTITATIVE_RESULT>
1.79

$$$$
>  <COMPOUND>
CCSc1ccc2c(c1)C1=Nc3c4ccc(SCC)cc4c4n3[B@-]3(Oc5ccc(C[C@H](N)C(=O)OC)cc5)n5c(c6cc(SCC)ccc6c5=N4)=NC2=[N+]13

>  <READOUT_NAME>
logD at 5 min, 100 µM

>  <QUANTITATIVE_RESULT>
1.93

$$$$
>  <COMPOUND>
CCSc1ccc2c(c1)C1=Nc3c4ccc(SCC)cc4c4n3[B-]3(OCc5ccc6c(c5)OCCOCCOCCOCCOCCO6)n5c(c6cc(SCC)ccc6c5=N4)=NC2=[N+]13 (stereo not given)

>  <READOUT_NAME>
logD at 5 min, 100 µM

>  <QUANTITATIVE_RESULT>
1.92

$$$$
>  <COMPOUND>
CCSc1ccc2c(c1)C1=Nc3c4ccc(SCC)cc4c4n3[B-]3(Oc5ccc(C[C@H](NC(=O)OC(C)(C)C)C(=O)OC)cc5)n5c(c6cc(SCC)ccc6c5=N4)=NC2=[N+]13 (stereo not given in full)

>  <READOUT_NAME>
logD at 5 min, 100 µM

>  <QUANTITATIVE_RESULT>
2.63

$$$$
>  <COMPOUND>
COC(=O)[C@H](Cc1ccc(O[B@@-]23n4c5c6ccc(I)cc6c4N=c4c6ccc(I)cc6c(n42)=NC2=[N+]3C(=N5)c3ccc(I)cc32)cc1)NC(=O)OC(C)(C)C

>  <READOUT_NAME>
logD at 5 min, 100 µM

>  <QUANTITATIVE_RESULT>
2.22

$$$$
